Reported MIC by item:
Test system: B. subtilis ATCC 6633
Assay: minimal inhibitory concentration (MIC), agar streak test
Type: cell-based
Conditions: Bacillus subtilis, ATCC6633, heart infusion agar, 37° C., 20 hours, 10^8 viable cells per ml
Provide only the numeric value, understood in µg/mL.

Recorded MIC, per entry:
CCO/N=C(\C(=O)NC1C(=O)N2C(C(=O)[O-])=C(C[n+]3ccc(CO)cc3)CSC12)c1nsc(N)n1 (centres unmarked) : 0.78
CCO/N=C(\C(=O)NC1C(=O)N2C(C(=O)[O-])=C(C[n+]3ccc(CCCO)cc3)CSC12)c1nsc(N)n1 (centres unmarked) : 0.78
CCO/N=C(\C(=O)NC1C(=O)N2C(C(=O)[O-])=C(C[n+]3cccc(Cl)c3)CSC12)c1nsc(N)n1 (centres unmarked) : 0.78
CCO/N=C(\C(=O)NC1C(=O)N2C(C(=O)[O-])=C(C[n+]3cccc(CO)c3)CSC12)c1nsc(N)n1 (centres unmarked) : 0.78

// switching to the query compound
Query: Provide MIC value for the following compound: CCO/N=C(\C(=O)NC1C(=O)N2C(C(=O)[O-])=C(C[n+]3cc(C)cc(C)c3)CSC12)c1nsc(N)n1 (centres unmarked)
Result: 1.56
